- Test system: K. pneumoniae NVT1001 strains with carbapenemase plasmids
- protocol_summary: Etest MIC of β-lactams, OmpK35/36 loss, ΔramR and/or carbapenemase (Table 9)
- Type: cell-based, Klebsiella pneumoniae
- settings: Klebsiella pneumoniae, KPC-2 on pACYC177; ΔramRΔ35 (ΔramRΔompK35 mutant)
recorded_endpoint: MIC

Please look up its MIC: C[C@H]1[C@H](NC(=O)/C(=N\OC(C)(C)C(=O)O)c2csc(N)n2)C(=O)N1S(=O)(=O)O > 256 µg/mL

Please look up its MIC: CC(C)(O/N=C(\C(=O)N[C@@H]1C(=O)N2C(C(=O)[O-])=C(C[n+]3ccccc3)CS[C@H]12)c1csc(N)n1)C(=O)O 128 µg/mL

Please look up its MIC: C[C@@H](O)[C@H]1C(=O)N2C(C(=O)O)=C(SCCN=CN)C[C@H]12 > 32 µg/mL

Please look up its MIC: CC(=O)OCC1=C(C(=O)O)N2C(=O)[C@@H](NC(=O)Cc3cccs3)[C@H]2SC1 > 256 µg/mL

----------
- Test system: K. pneumoniae NVT1001 strains with carbapenemase plasmids
- protocol_summary: Etest MIC of β-lactams, OmpK35/36 loss, ΔramR and/or carbapenemase (Table 9)
- Assay type: cell-based, Klebsiella pneumoniae
- settings: Klebsiella pneumoniae, KPC-2 on pACYC177; Δ35 (ΔompK35 mutant)
- Protocol: DNA fragments of the resistance genes along with their flanking regions were amplified from clinical plasmids via PCR with specific primer pairs. The resulting PCR fragments were digested and then cloned into the plasmid pACYC177 or pACYC184. The resulting plasmids were then transformed into K. pneumoniae strain NVT1001 via electroporation. […] The MICs of antibiotics were determined using the Etest (Biodisk AB, Sweden) according to the manufacturer's instructions. […]
recorded_endpoint: MIC (µg/mL)
Note: unit µg/mL is implicit; provide only the numeric part.

Please look up its MIC: C[C@@H](O)[C@H]1C(=O)N2C(C(=O)O)=C(S[C@@H]3CN[C@H](CNS(N)(=O)=O)C3)[C@H](C)[C@H]12 [Doripenem] 32

Please look up its MIC: CC(C)(O/N=C(\C(=O)N[C@@H]1C(=O)N2C(C(=O)[O-])=C(C[n+]3ccccc3)CS[C@H]12)c1csc(N)n1)C(=O)O [Ceftazidime] 64

----------
- Tested on: A. baumannii KW1 strains with aminoglycoside resistance plasmids
- protocol_summary: Etest MIC of aminoglycosides, aminoglycoside-modifying enzyme or 16S rRNA methylase (Table 19)
- Format: cell-based, Acinetobacter baumannii
- settings: KW1 with AAC(3)-IIa on pYMAb5Tc
Please respond with reported MIC for every item in the list.
Note: unit µg/mL is implicit; provide only the numeric part.

Please look up its MIC: CN[C@@H]1[C@H](O)[C@H](NC)[C@H]2O[C@@]3(O)C(=O)C[C@@H](C)O[C@H]3O[C@@H]2[C@H]1O 24

Please look up its MIC: CCN[C@@H]1C[C@H](N)[C@@H](O[C@H]2OC(CN)=CC[C@H]2N)[C@H](O)[C@H]1O[C@H]1OC[C@](C)(O)[C@H](NC)[C@H]1O 1.5

Please look up its MIC: NC[C@@H]1O[C@@H](O[C@H]2[C@H](O)[C@@H](O[C@H]3O[C@H](CO)[C@@H](O)[C@H](N)[C@H]3O)[C@H](N)C[C@@H]2N)[C@@H](O)[C@H](O)[C@H]1O 2

Please look up its MIC: NCC[C@H](O)C(=O)N[C@@H]1C[C@H](N)[C@@H](O[C@H]2O[C@H](CN)[C@@H](O)[C@H](O)[C@H]2O)[C@H](O)[C@H]1O[C@H]1O[C@H](CO)[C@@H](O)[C@H](N)[C@H]1O 2

Please look up its MIC: CN[C@@H]1[C@H](O[C@H]2[C@H](O[C@H]3[C@H](O)[C@@H](O)[C@H](N=C(N)N)[C@@H](O)[C@@H]3N=C(N)N)O[C@@H](C)[C@]2(O)C=O)O[C@@H](CO)[C@H](O)[C@H]1O 8

Please look up its MIC: NC[C@H]1O[C@H](O[C@H]2[C@H](O)[C@@H](O[C@H]3O[C@H](CO)[C@@H](O)[C@H](N)[C@H]3O)[C@H](N)C[C@@H]2N)[C@H](N)C[C@@H]1O 0.5

Data origin: patent US10760110B2
